From: patent US20240316154A1

- tested-on: T1, Pig serum albumin (pig, UniProt P08835 25-607)
- T1 construct: bought; immobilised on a CM5 chip by amine coupling; also called Pig SA
- measurement-protocol: SPR, SA on chip, VHH 300 nM, 25 C
value-kind: koff (s⁻¹)

| binder | data-value |
| --- | --- |
| VHH moiety 17 (MC6.1C22-R102K) (VHH) VHH: EVQLLESGGGLVQPGGSLRLSCAASGRYIDETAVAWFRQAPGKEREFVAGIGGGVDITYYADSVKGRFTISRDNSKNTLYLQMNSLRPEDTAVYYCAARPGKPLITSKVADLYPYWGQGTLVTVSS | 0.013 |

I. VHH moiety 39 (MC6.1C90.43) (VHH) VHH: EVQLLESGGGLVQPGGSLRLSCAASGRYIDETAVAWFRQAPGKGREFVAGIGGGVDITYYADSVKGRFTISRDNSKNTLYLQMNSLRPEDTAVYYCGARPGRPLITSKVADLYPYWGQGTLVTVSS
II. VHH moiety 22 (MC6.1C22-P103S) (VHH) VHH: EVQLLESGGGLVQPGGSLRLSCAASGRYIDETAVAWFRQAPGKEREFVAGIGGGVDITYYADSVKGRFTISRDNSKNTLYLQMNSLRPEDTAVYYCAARPGRSLITSKVADLYPYWGQGTLVTVSS
Task item: I or II : whose koff is greater? Write down the label of the entry you select.
Reply: II
